Form: system (UniProt:P08631), quantity (IC50), values below.
Sequence (P08631 whole entry, species assumed): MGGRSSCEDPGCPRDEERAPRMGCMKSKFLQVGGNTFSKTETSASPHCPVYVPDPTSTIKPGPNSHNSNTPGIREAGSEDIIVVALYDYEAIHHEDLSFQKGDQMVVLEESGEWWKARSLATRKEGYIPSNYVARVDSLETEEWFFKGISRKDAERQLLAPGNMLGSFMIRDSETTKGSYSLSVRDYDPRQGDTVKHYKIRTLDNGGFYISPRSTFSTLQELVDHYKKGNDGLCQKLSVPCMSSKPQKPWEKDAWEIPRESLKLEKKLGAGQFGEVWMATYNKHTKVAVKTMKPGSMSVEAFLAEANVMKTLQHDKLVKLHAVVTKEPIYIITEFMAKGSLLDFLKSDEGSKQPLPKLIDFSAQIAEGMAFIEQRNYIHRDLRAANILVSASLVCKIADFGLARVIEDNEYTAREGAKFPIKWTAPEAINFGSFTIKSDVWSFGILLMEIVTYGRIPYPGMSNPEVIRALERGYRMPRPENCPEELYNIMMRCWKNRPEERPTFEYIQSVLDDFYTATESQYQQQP

What does the data say about its IC50? Entry: C=CC(=O)N1CCC[C@@H](n2nc(-c3ccc(Oc4ccccc4)nc3)c3c(N)ncnc32)C1 [Compound 15a] > 1000 nM

What does the data say about its IC50? Entry: C=CC(=O)N1CCC[C@@H](n2nc(-c3ccc(Oc4ccccc4)nc3F)c3c(N)ncnc32)C1 [Compound 17a] > 1000 nM

What does the data say about its IC50? Entry: C=CC(=O)N1CC[C@@H](n2nc(-c3ccc(Oc4ccccc4)nc3F)c3c(N)ncnc32)C1 [Compound 24a] > 1000 nM

###

pIC50: −log10 of the molar value.
Form: system (FGR (Homo sapiens (Human), UniProt P09769)), quantity (pIC50), values below.

What does the data say about its pIC50? Entry: C=CC(=O)N1CC[C@@H](n2nc(-c3ccc(Oc4ccccc4)nc3F)c3c(N)ncnc32)C1 [Compound 24a] < 6.00

What does the data say about its pIC50? Entry: C=CC(=O)N1CCC[C@@H](n2nc(-c3ccc(Oc4ccccc4)nc3)c3c(N)ncnc32)C1 [Compound 15a] < 6.00

What does the data say about its pIC50? Entry: C=CC(=O)N1CCC[C@@H](n2nc(-c3ccc(Oc4ccccc4)nc3F)c3c(N)ncnc32)C1 [Compound 17a] < 6.00

###

Field: pIC50. Provide a value for each of the compounds that follow.
# experimental-system: hERG potassium channel (Homo sapiens (Human), UniProt Q12809)
# Sequence (Q12809 whole entry): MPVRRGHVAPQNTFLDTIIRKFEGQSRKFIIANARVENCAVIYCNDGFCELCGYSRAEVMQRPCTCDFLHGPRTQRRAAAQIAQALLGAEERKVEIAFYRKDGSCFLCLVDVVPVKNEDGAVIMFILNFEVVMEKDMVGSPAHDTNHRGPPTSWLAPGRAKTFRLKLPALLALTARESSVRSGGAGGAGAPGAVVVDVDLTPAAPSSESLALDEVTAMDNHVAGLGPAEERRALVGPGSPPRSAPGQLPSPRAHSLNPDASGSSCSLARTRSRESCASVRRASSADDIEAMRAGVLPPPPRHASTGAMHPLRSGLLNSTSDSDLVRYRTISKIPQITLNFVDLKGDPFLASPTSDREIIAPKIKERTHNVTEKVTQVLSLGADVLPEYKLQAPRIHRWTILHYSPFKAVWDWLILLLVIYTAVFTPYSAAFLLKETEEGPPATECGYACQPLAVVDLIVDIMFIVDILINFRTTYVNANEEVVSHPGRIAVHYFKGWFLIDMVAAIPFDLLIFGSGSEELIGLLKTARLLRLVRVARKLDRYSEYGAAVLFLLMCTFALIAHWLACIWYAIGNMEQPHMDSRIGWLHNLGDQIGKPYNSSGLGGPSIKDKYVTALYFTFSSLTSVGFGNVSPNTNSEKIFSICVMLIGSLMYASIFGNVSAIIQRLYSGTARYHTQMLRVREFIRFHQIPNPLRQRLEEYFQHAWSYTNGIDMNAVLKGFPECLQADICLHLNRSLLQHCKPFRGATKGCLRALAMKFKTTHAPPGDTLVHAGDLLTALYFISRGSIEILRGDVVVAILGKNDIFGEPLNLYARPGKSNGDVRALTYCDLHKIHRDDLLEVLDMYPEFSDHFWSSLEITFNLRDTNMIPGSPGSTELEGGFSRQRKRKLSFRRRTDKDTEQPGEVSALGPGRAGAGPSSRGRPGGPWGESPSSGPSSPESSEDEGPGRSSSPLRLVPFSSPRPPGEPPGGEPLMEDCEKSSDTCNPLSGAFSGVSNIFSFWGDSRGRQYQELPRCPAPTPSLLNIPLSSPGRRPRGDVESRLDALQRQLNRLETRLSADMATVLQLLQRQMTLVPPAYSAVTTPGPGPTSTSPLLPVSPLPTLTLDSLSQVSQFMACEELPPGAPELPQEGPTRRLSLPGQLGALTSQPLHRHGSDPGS
# test-method-notes: hERG potassium channel inhibitory activity, manual patch clamp in CHO cells
# setup-conditions: CHO cells stably expressing hERG, whole-cell patch clamp
Just the number, please; pIC50 means minus log10 of the concentration in mol/L.

What does the data say about its pIC50? Entry: C=CC(=O)N1CCC[C@@H](n2nc(-c3cnc(Oc4ccccc4)cc3F)c3c(N)ncnc32)C1 [Compound 16a] 5.16

What does the data say about its pIC50? Entry: C=CC(=O)N1CCC[C@@H](n2nc(-c3ccc(Oc4ccccc4)cn3)c3c(N)ncnc32)C1 4.97

What does the data say about its pIC50? Entry: Nc1ncnc2c1c(-c1ccc(Oc3ccccc3)nc1)nn2[C@@H]1CCCN(C(=O)C#CCCO)C1 [Compound 21c] 4.60

What does the data say about its pIC50? Entry: CC/C=C/C(=O)N1CCC[C@@H](n2nc(-c3ccc(Oc4ccccc4)nc3)c3c(N)ncnc32)C1 [Compound 20a] 4.83

What does the data say about its pIC50? Entry: CC#CC(=O)N1CC[C@@H](n2nc(-c3ccc(Oc4ccccc4)nc3)c3c(N)ncnc32)C1 [Compound 25a] 4.87

What does the data say about its pIC50? Entry: C=CC(=O)N1CCC[C@@H](n2nc(-c3ccc(Oc4ccc(OC)cc4)nc3)c3c(N)ncnc32)C1 [Compound 15j] 4.76

What does the data say about its pIC50? Entry: C=CC(=O)N1CCC[C@@H](n2nc(-c3ccc(Oc4ccccc4)nc3)c3c(N)ncnc32)C1 [Compound 15a] 4.81

###

Field: IL-1β. Provide a value for each of the compounds that follow.
# System: arthritis induced by anti-collagen antibodies and lipopolysaccharides
# test-method-notes: Rheumatoid arthritis model induced by anti-collagen antibodies and lipopolysaccharides
# Assay type: in vivo, Balb/c mice
# setup-conditions: serum on Day 13, 10 mg/kg orally once a day Day 2 to Day 12
The reply should contain only the number, in ng/L.

What does the data say about its IL-1β? Entry: C=CC(=O)N1CCC[C@@H](n2nc(-c3ccc(Oc4ccccc4)nc3F)c3c(N)ncnc32)C1 [Compound 17a] 17.25

What does the data say about its IL-1β? Entry: C=CC(=O)N1CCC[C@@H](n2nc(-c3ccc(Oc4ccccc4)nc3)c3c(N)ncnc32)C1 [Compound 15a] 18.72

What does the data say about its IL-1β? Entry: C=CC(=O)N1CC[C@@H](n2nc(-c3ccc(Oc4cccc(F)c4F)nc3F)c3c(N)ncnc32)C1 [Compound 24e] 20.45

What does the data say about its IL-1β? Entry: C=CC(=O)N1CC[C@@H](n2nc(-c3ccc(Oc4ccccc4)nc3F)c3c(N)ncnc32)C1 [Compound 24a] 19.32

Values were extracted from patent US10711006B2.
